Where do these numbers come from? They come from ChEMBL document CHEMBL5724696.

Tested on: U2OS
protocol summary: Here: values are normalized to the negative (DMSO; defined as 0% autophagy induction) and positive (250nM Torin1; mTOR inhibitor; defined as maximal inducer of autophagy = 100%) control compounds and represented as % of autophagy induction. […] The impact of autophagy induction on cells is complex and depends on the affected target. As such, the magnitude of a phenotype may not be equally mirrored in the %-value of autophagy induction and vice versa. The dynamics of the induction may indicate the mode of activation: e.g. activation via phosphorylation or a signaling cascade may occur fast, while activation via transcription factors may take considerably longer. […] Of note, treatment concentrations may be sub-optimal for specific compounds, leading to false negative annotations.
Assay type: functional, Homo sapiens
conditions used: Compound Concentration 2 uM, Timepoint 36 hours, Culturing Media DMEM, 1 % Penicillin/Streptomycin, 10% Fetal bovin serum Add-On: No, Screening Media Control DMEM, Screening Media Samples DMEM
measured metric: autophagy induction (%)

# molecule, unit annotation, quantitative result
measured = [
    ("COc1ccccc1CN[C@H]1C2CCN(CC2)[C@H]1C(c1ccccc1)c1ccccc1", "%", -0.5186),
    ("Cc1c(C2=CCN(C(=O)N(C)C(C)C)CC2)nnn1-c1cccnc1F", "%", -9.747),
    ("COc1ccc(C2(O)OC(=O)C(c3ccc4c(c3)OCO4)=C2Cc2cc(OC)c(OC)c(OC)c2)cc1 (stereo not given)", "%", -2.65),
    ("CN(C(=O)Cc1ccc(Cl)c(Cl)c1)C(CN1CCCC1)c1cccc(OCC(=O)O)c1.Cl (stereo not given)", "%", -10.0899),
    ("N[C@H](C(=O)O)c1ccc(C(=O)O)c(C(=O)O)c1", "%", 0.8793),
    ("O=C1N/C(=N/c2ccccc2F)S/C1=C\\c1ccc(C(=O)O)cc1", "%", 0.4254),
    ("COc1ccc(Br)cc1S(=O)(=O)NC(=O)/C=C/c1ccccc1Cc1ccc2ccccc2c1", "%", -4.477),
    ("Cc1cc(C)cc(C(=O)N(C)[C@H](Cc2ccc(-c3ccccc3)cc2)C(=O)N[C@@H](Cc2c[nH]c3ccccc23)C(=O)O)c1", "%", -3.298),
    ("FC(F)(F)c1c(N2CCC(c3ccccc3)CC2)ccn2c(CC3CC3)nnc12", "%", -3.294),
    ("COc1ccnc(N2CCC3(CCCN(Cc4c[nH]c5ccccc45)C3=O)CC2)n1", "%", 7.881),
    ("Cc1csc2c(N[C@@H](C)CN3CCN(S(=O)(=O)c4ccc(Cl)c(Cl)c4)CC3)ncnc12", "%", 12.0314),
    ("N#Cc1c[nH]c2c(C(=O)N3CCN(CCc4ccc(F)cc4)CC3)cccc12", "%", -5.754),
    ("C[C@]1(C(=O)N(CCCC(=O)O)Cc2cccc(Cl)c2)CCN1C(=O)c1csc2ccccc12", "%", 6.198),
    ("CNc1nc(NCc2ccc(NS(C)(=O)=O)cc2Cl)cc(-c2ccccn2)n1", "%", 11.9727),
    ("O=C(O)COc1cccc(CN(Cc2ccc(-n3cccn3)cc2)S(=O)(=O)c2cccnc2)c1", "%", -8.014),
    ("CC(C)Oc1ccccc1C(=O)Nc1ccccc1C(=O)Nc1cccc(S(=O)(=O)C(F)(F)F)c1", "%", -2.457),
    ("CCc1ccc(OCc2ccccc2C(=O)Nc2ccc3nc(C)cc(N)c3c2)cc1.Cl", "%", 63.192),
    ("CCCSc1nc(N[C@@H]2C[C@H]2c2ccc(F)c(F)c2)c2nnn([C@@H]3C[C@H](OCCO)[C@@H](O)[C@H]3O)c2n1", "%", -3.06),
    ("CS(=O)(=O)NC[C@H]1CC[C@H](Nc2nc3c(s2)CCSc2ccccc2-3)CC1", "%", 0.6599),
    ("Cc1csc(NC(=O)c2cc(F)cc(Oc3cncnc3)c2)n1", "%", -11.4826),
]
